Target: MMP 1 (Homo sapiens)
Construct: human recombinant fibroblast collagenase (truncated, mw= 18,828, WAR, Radnor)
Sequence (P03956 100-269 limits assumed): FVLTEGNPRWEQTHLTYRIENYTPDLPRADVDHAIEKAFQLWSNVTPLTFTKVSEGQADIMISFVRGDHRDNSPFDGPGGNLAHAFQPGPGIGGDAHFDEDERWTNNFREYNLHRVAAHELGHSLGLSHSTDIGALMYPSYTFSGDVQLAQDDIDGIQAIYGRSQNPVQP
Experiment: In Vitro Collagenase Assay
Format: biochemical
Conditions: human recombinant fibroblast collagenase; read-out: MMP 1 IC 50
parameter: IC50 (nM)

>>> df
                                    compound  measurement
 0  COc1ccc(SC(C(=O)NO)C(C)C)cc1 (stereo not drawn)          371
 1  CCCCCC#CCC(CC#CCCCCC)(C(=O)NO)S(=O)(=O)c1ccc(OC)cc1         1000
 2  CCC(Cc1ccc(OCCN2CCOCC2)cc1)(C(=O)NO)S(=O)(=O)c1ccc(OC)cc1 (stereo not drawn)          318
 3  CC#CCC(Cc1cccnc1)(C(=O)NO)S(=O)(=O)c1ccc(F)cc1 (stereo not drawn)          805
 4  CCCCC[C@@H](C(=O)NO)[S@@+]([O-])c1ccc(OC)cc1 (stereo in doubt) [Example 81b]         3760
 5  COc1ccc(S(=O)(=O)C(CCC(C)C)(Cc2cccnc2)C(=O)NO)cc1 (stereo not drawn)          575
 6  COc1ccc(S(=O)(=O)C(C)(CC=Cc2ccccc2)C(=O)NO)cc1 (stereo not drawn)          299
 7  COc1ccc([S+]([O-])C(C)(CC=C(C)C)C(=O)NO)cc1 (stereo not drawn)          267
 8  COc1ccc(S(=O)(=O)C(C)(Cc2ccc(-c3ccccc3)cc2)C(=O)NO)cc1 (stereo not drawn)          158
 9  COc1ccc(S(=O)(=O)C2(C(=O)NO)CCN(CCOc3ccccc3)CC2)cc1          629
10  COc1ccc(S(=O)(=O)C2(C(=O)NO)CCN(Cc3ccc(F)cc3)CC2)cc1          656
11  COc1ccc(S(=O)(=O)C(C)(Cc2ccccc2)C(=O)NO)cc1 (stereo not drawn)          100

###

Target: TACE (Homo sapiens)
Construct: purchased Immunex
Sequence (P78536 215-824): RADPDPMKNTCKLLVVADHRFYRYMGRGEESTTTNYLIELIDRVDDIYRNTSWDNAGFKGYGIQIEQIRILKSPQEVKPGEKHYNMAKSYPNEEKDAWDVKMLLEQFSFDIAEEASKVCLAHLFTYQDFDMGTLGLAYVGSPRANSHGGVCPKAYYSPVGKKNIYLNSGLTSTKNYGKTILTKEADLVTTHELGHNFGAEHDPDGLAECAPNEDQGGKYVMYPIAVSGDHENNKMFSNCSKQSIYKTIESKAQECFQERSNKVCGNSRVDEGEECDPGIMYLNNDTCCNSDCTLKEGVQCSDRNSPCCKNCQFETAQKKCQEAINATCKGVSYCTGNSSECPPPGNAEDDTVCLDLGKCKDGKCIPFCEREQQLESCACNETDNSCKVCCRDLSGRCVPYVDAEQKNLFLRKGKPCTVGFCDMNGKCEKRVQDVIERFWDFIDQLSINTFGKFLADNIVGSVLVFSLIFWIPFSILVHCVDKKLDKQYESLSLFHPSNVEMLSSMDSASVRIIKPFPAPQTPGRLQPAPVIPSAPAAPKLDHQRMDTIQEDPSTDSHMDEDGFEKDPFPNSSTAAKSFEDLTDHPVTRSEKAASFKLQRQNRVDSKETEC
Assay: Procedure for Measuring TACE Inhibition
Format: biochemical
Settings: read-out: TACE % inhibition at 1 micromolar
Attribute: inhibition at 1 µM
parameter: inhibition at 1 µM (%)

>>> df
                                    molecule  measurement
 0  CC#CCC(CC#CC)(C(=O)NO)S(=O)(=O)c1ccc(OC)cc1         51.6
 1  CC(Cc1ccccc1)(C(=O)NO)S(=O)(=O)c1cccs1 (stereo not drawn)         51.1
 2  CCC(Cc1ccc(OCCN2CCOCC2)cc1)(C(=O)NO)S(=O)(=O)c1ccc(OC)cc1 (stereo not drawn)         23.9
 3  COc1ccc(S(=O)(=O)C2(C(=O)NO)CCN(CCCOc3ccccc3)CC2)cc1         50.2
 4  CCCCOc1ccc(S(=O)(=O)C(C)(Cc2ccc(OCCN3CCCCC3)cc2)C(=O)NO)cc1 (stereo not drawn)         30.6
 5  COc1ccc(S(=O)(=O)C(C)(Cc2ccccc2)C(=O)NO)cc1 (stereo not drawn)         15.5
 6  COc1ccc([S+]([O-])C(C)(Cc2ccccc2)C(=O)NO)cc1 (stereo not drawn)           25
 7  COc1ccc(S(=O)(=O)C(CCC(C)C)(Cc2cccnc2)C(=O)NO)cc1 (stereo not drawn)         41.3
 8  CCCCCCC(Sc1ccc(F)cc1)C(=O)NO (stereo not drawn)         55.1
 9  CCC(Cc1ccc(OCCN2CCCCC2)cc1)(C(=O)NO)S(=O)(=O)c1ccc(OC)cc1 (stereo not drawn)         28.1
10  COc1ccc(S(=O)(=O)C(Cc2cccnc2)(CC(C)C)C(=O)NO)cc1 (stereo not drawn)         42.3
11  COc1ccc(S(=O)(=O)C(C)(Cc2cccc(OCCN3CCCCC3)c2)C(=O)NO)cc1 (stereo not drawn)           30
12  COc1ccc([S+]([O-])C(C(=O)NO)C(C)C)cc1 (stereo not drawn)           33
13  COc1ccc(S(=O)(=O)C(CCCc2ccccc2)(CCCc2ccccc2)C(=O)NO)cc1         16.6
14     COc1ccc(S(=O)(=O)C2(C(=O)NO)CCCC2)cc1         55.1
15  CCCCN1CCC(C(=O)NO)(S(=O)(=O)c2ccc(OC)cc2)CC1         15.8
16  Cc1occc1S(=O)(=O)C(C)(Cc1ccccc1)C(=O)NO (stereo not drawn)         46.6
17  CCCCCC#CCC(CC#CCCCCC)(C(=O)NO)S(=O)(=O)c1ccc(OC)cc1         42.2
